- Test system: NCI-H1993
- assay-procedure: relative viability (nuclei count vs DMSO), 5 days (fraction); higher = more cells survive
- condition-set: first compound 0.05 µM
# label 1 = relative viability below 0.8 (exclusive); label 0 = relative viability at/above 0.8

{"columns": ["compound", "group-label"],
 "data": [
  ["COc1cc2nccc(Oc3ccc(NC(=O)Nc4cc(C)on4)c(Cl)c3)c2cc1OC [Tivozanib] + N=C(N)NC(=N)NCCc1ccccc1 [Phenformin] (partner 250 µM)", "label 1"],
  ["COc1cc2nccc(Oc3ccc(NC(=O)Nc4cc(C)on4)c(Cl)c3)c2cc1OC [Tivozanib] + CC(C)C[C@H](NC(=O)[C@H](Cc1ccccc1)NC(=O)c1cnccn1)B(O)O [Bortezomib] (partner 0.002 µM)", "label 0"],
  ["COc1cc2nccc(Oc3ccc(NC(=O)Nc4cc(C)on4)c(Cl)c3)c2cc1OC [Tivozanib] + CS(=O)(=O)CCNCc1ccc(-c2ccc3ncnc(Nc4ccc(OCc5cccc(F)c5)c(Cl)c4)c3c2)o1 [Lapatinib] (partner 2 µM)", "label 1"],
  ["Nc1ccn([C@@H]2O[C@H](CO)[C@@H](O)[C@@H]2O)c(=O)n1 [Cytarabine] + O=C(CCCCCCC(=O)Nc1ccccc1)NO [Vorinostat] (partner 1 µM)", "label 1"],
  ["Nc1ccn([C@@H]2O[C@H](CO)[C@@H](O)[C@@H]2O)c(=O)n1 [Cytarabine] + CC1(C)CCC(c2ccc(Cl)cc2)=C(CN2CCN(c3ccc(C(=O)NS(=O)(=O)c4ccc(N[C@H](CCN5CCOCC5)CSc5ccccc5)c(S(=O)(=O)C(F)(F)F)c4)cc3)CC2)C1 [Navitoclax] (partner 0.5 µM)", "label 1"],
  ["COc1cc2nccc(Oc3ccc(NC(=O)Nc4cc(C)on4)c(Cl)c3)c2cc1OC [Tivozanib] + COc1cc2c(Oc3ccc(NC(=O)C4(C(=O)Nc5ccc(F)cc5)CC4)cc3F)ccnc2cc1OCCCN1CCOCC1 [Foretinib] (partner 0.25 µM)", "label 1"],
  ["Nc1ccn([C@@H]2O[C@H](CO)[C@@H](O)[C@@H]2O)c(=O)n1 [Cytarabine] + COc1cccc2cc(-c3nc([C@H]4CC[C@H](C(=O)O)CC4)n4ncnc(N)c34)[nH]c12 [OSI-027] (partner 0.5 µM)", "label 1"],
  ["COc1cc2nccc(Oc3ccc(NC(=O)Nc4cc(C)on4)c(Cl)c3)c2cc1OC [Tivozanib] + C[C@@H](Oc1cc(-c2cnn(C3CCNCC3)c2)cnc1N)c1c(Cl)ccc(F)c1Cl [Crizotinib] (partner 1 µM)", "label 0"],
  ["COc1cc2nccc(Oc3ccc(NC(=O)Nc4cc(C)on4)c(Cl)c3)c2cc1OC [Tivozanib] + Cc1nc(NC(=O)N2CCC[C@H]2C(N)=O)sc1-c1ccnc(C(C)(C)C(F)(F)F)c1 [Alpelisib] (partner 2 µM)", "label 1"]
]}

----------
- Tested on: NCI-H2085
- assay-procedure: relative viability (nuclei count vs DMSO), 5 days (fraction); higher = more cells survive
- condition-set: first compound 0.005 µM
Labelling field: enter MET if recorded relative viability is less than 0.8. Enter NOT MET if it equals or exceeds that cut-off.

{"columns": ["molecule", "study-target", "group-label"],
 "data": [
  ["Nc1ccn([C@@H]2O[C@H](CO)[C@@H](O)[C@@H]2O)c(=O)n1 [Cytarabine] + N=C(N)NC(=N)NCCc1ccccc1 [Phenformin] (partner 250 µM)", "NCI-H2085", "MET"],
  ["COc1cc2nccc(Oc3ccc(NC(=O)Nc4cc(C)on4)c(Cl)c3)c2cc1OC [Tivozanib] + Cc1nc(NC(=O)N2CCC[C@H]2C(N)=O)sc1-c1ccnc(C(C)(C)C(F)(F)F)c1 [Alpelisib] (partner 2 µM)", "NCI-H2085", "NOT MET"],
  ["COc1cc2nccc(Oc3ccc(NC(=O)Nc4cc(C)on4)c(Cl)c3)c2cc1OC [Tivozanib] + CC(=O)Nc1cccc(-n2c(=O)n(C3CC3)c(=O)c3c(Nc4ccc(I)cc4F)n(C)c(=O)c(C)c32)c1 [Trametinib] (partner 0.02 µM)", "NCI-H2085", "MET"],
  ["COc1cc2nccc(Oc3ccc(NC(=O)Nc4cc(C)on4)c(Cl)c3)c2cc1OC [Tivozanib] + CCNC(=O)c1noc(-c2cc(C(C)C)c(O)cc2O)c1-c1ccc(CN2CCOCC2)cc1 [Luminespib] (partner 0.01 µM)", "NCI-H2085", "MET"],
  ["Nc1ccn([C@@H]2O[C@H](CO)[C@@H](O)[C@@H]2O)c(=O)n1 [Cytarabine] + CS(=O)(=O)CCNCc1ccc(-c2ccc3ncnc(Nc4ccc(OCc5cccc(F)c5)c(Cl)c4)c3c2)o1 [Lapatinib] (partner 2 µM)", "NCI-H2085", "MET"],
  ["Nc1ccn([C@@H]2O[C@H](CO)[C@@H](O)[C@@H]2O)c(=O)n1 [Cytarabine] + CC(C)C[C@H](NC(=O)[C@H](Cc1ccccc1)NC(=O)c1cnccn1)B(O)O [Bortezomib] (partner 0.002 µM)", "NCI-H2085", "NOT MET"],
  ["Nc1ccn([C@@H]2O[C@H](CO)[C@@H](O)[C@@H]2O)c(=O)n1 [Cytarabine] + CC(=O)c1c(C)c2cnc(Nc3ccc(N4CCNCC4)cn3)nc2n(C2CCCC2)c1=O [Palbociclib] (partner 0.5 µM)", "NCI-H2085", "MET"],
  ["COc1cc2nccc(Oc3ccc(NC(=O)Nc4cc(C)on4)c(Cl)c3)c2cc1OC [Tivozanib] + CS(=O)(=O)CCNCc1ccc(-c2ccc3ncnc(Nc4ccc(OCc5cccc(F)c5)c(Cl)c4)c3c2)o1 [Lapatinib] (partner 2 µM)", "NCI-H2085", "MET"],
  ["Nc1ccn([C@@H]2O[C@H](CO)[C@@H](O)[C@@H]2O)c(=O)n1 [Cytarabine] + NC(=O)Nc1cc(-c2cccc(F)c2)sc1C(=O)N[C@H]1CCCNC1 [AZD7762] (partner 0.2 µM)", "NCI-H2085", "NOT MET"]
]}

Taken from the supplement of paper PMC10307832.
